These data points were gathered from PubChem BioAssay (NCI).

- Test system: UACC-257 melanoma
- Assay method text: NCI-60 one-dose screen, 48 h (100 = growth as untreated, 0 = no growth, -100 = all killed)
- Assay conditions: 10 µM unless noted
This is part of a sample that, as a whole, favours compounds with a hit. Of some 83,000 tested, about 20% had one in any assay.
Experimental readout: growth (%)
Report the value in % with no unit label.

Nc1nc(Nc2ccc(Cl)cc2)nn1S(=O)(=O)c1ccc(-c2ccc(F)cc2)cc1	107
COc1cc(C2C=C(c3cccc(NC(C)=O)c3)Nc3ncnn32)cc(OC)c1OC (stereo not drawn)	71.2
COc1ccc(C(=O)/C=C/c2cc3c(c(OC)c2)OCC(=O)N3)cc1	91.6
COc1ccc(-c2nc3ccccn3c2/C=C/C(=O)c2cc(OC)c(OC)c(OC)c2)cc1	55.3
COc1cc(-c2cc(-c3ccc(Nc4nc(Nc5ccccc5)nc(Nc5ccc(Cl)cc5)n4)cc3)nc(N)n2)cc(OC)c1OC	99.4

Name the reported growth value associated with the compound `N#Cc1c(N)nc2c(nnn2-c2cccc(C(F)(F)F)c2)c1N`
103

Name the reported growth value associated with the compound `CCn1c(Sc2nnc(NC(=O)CCN3CCCC3)s2)nc2c1c(=O)n(C)c(=O)n2C`
102

Name the reported growth value associated with the compound `CN(C)c1ccc2cc(-c3ccccc3F)c(N)nc2c1`
45.7

* * *

- Test system: HT29 colon
- Assay method text: NCI-60 one-dose screen, 48 h (100 = growth as untreated, 0 = no growth, -100 = all killed)
- Assay conditions: 10 µM unless noted
This is part of a sample that, as a whole, favours compounds with a hit. Of some 83,000 tested, about 20% had one in any assay. The source made the active and inactive calls. The calls were made as follows: active = growth percent below 10; inactive = the rest.
Experimental readout: growth

Reference set, count: 2
COc1cc2c(cc1OC)-c1ccc3cc4c(cc3c1N(CCCn1ccnc1)C2)OCO4	27.6% (inactive)
COc1ccc(/C(C)=C(\c2ccc(Cl)cc2)c2ccc(OCCN3CCCCC3)cc2)cc1F	4.57% (active)

Please find the next molecule below.
Name the reported growth value associated with the molecule `Cn1cc(-c2ccc3nc(-c4ccc(CC(=O)Nc5cc(C(C)(C)C)no5)cc4)cnc3c2)cn1`
58.4% [30 µM] (inactive)

* * *

- System: DU-145 prostate
- Assay method text: NCI-60 one-dose screen, 48 h
- Assay conditions: 10 µM unless noted
About 83,000 compounds went through this panel and 20% of them were active in at least one assay; those are over-represented in the sample as a whole. The source made the active and inactive calls. The calls were made as follows: active = growth percent below 10; inactive = the rest.
Returns: one label drawn from yes for active, no for inactive

Look over these answered cases.
C=C(C)C1CCC(=C)C2CCC3(C)OC12/C=C(/COC(C)=O)CCC3O (stereo not given)	no
CCCCCCNCc1cc(C(C)(C)C)cc(CNCCCCCC)c1O	yes
O=C(C[C@@]1(O)C(=O)Nc2c(Cl)ccc(Cl)c21)c1ccc(C2CC2)cc1	no
CC(C)(O)c1cccc(F)c1	no
CC(=O)NCC(=O)Nc1ccc(-c2nnc3ccccn23)nc1.CC(=O)NCC(=O)Nc1ccc(-c2nnc3ccccn23)nc1.[Pt+2]	no
COc1ccc(C2=NC(=O)NC2c2ccc(OC)cc2)cc1 (stereo not given)	no
CC(=O)Nc1ccc(C(=O)/C=C/c2ccccc2)cc1	no
O=S(=O)(NCCNc1cc(-c2c(-c3cccc(O)c3)nc3sccn23)ccn1)c1ccc(Cl)cc1	no
NC(=O)CC1(O)C=C(Br)C(=O)C(Br)=C1	no
COc1ccc(/C(C)=N/NS(=O)(=O)c2ccc(C)cc2)cc1OC	no

Tell me the recorded outcome of this test for `NC(=Nc1ccc(N)cc1)C(N)=Nc1ccc(N)cc1` .
no

Tell me the recorded outcome of this test for `CNC=O` .
no

Tell me the recorded outcome of this test for CO/C(=C1/NC(=O)C(Cc2ccc(O)c(Br)c2)N(C)C(=O)C(C)NC(=O)CCC/C=C(\C)CCC(C)OC1=O)c1ccccc1 (stereo not given) .
yes

Tell me the recorded outcome of this test for `O=S(=O)(NCCNc1cc(-c2c(-c3cccc(O)c3)nc3sccn23)ccn1)c1ccc(Br)cc1` .
no

Tell me the recorded outcome of this test for `Cc1cc(-c2noc(C(F)(F)F)n2)ccc1N1CCN(c2cc(C(=O)N(C)C)no2)CC1` .
no

Tell me the recorded outcome of this test for `CN(C)c1ccc(-c2cc(-c3ccc(Nc4nc(Nc5ccccc5)nc(Nc5ccc(Cl)cc5)n4)cc3)nc(N)n2)cc1` .
no

Tell me the recorded outcome of this test for `C=C1C(=O)O[C@H]2[C@H]1CC/C(Cn1cc(CNCCc3c[nH]c4ccc(Cl)cc34)nn1)=C\CC[C@@]1(C)O[C@@H]21` .
no

Tell me the recorded outcome of this test for `N=C(N)c1ccc(-c2ccc(-c3ccc(Cl)c(Cl)c3)o2)nc1` .
yes

Tell me the recorded outcome of this test for `CN(CCCCCCCCNc1ccnc2ccccc12)Cc1ccc(-c2ccc(-c3ccc(C#N)cc3)s2)cc1` .
yes

Tell me the recorded outcome of this test for `COc1cc2c(cc1OC)-c1ccc3cc4c(cc3c1N(CCN(C)C)C2)OCO4` .
yes

Tell me the recorded outcome of this test for COc1cc(C2CC(=O)Nc3n[nH]c(-c4ccccc4)c32)cc(OC)c1OC (stereo not given) .
no

Tell me the recorded outcome of this test for CCC(O)(C(c1ccccc1)c1ccccn1)C(c1ccccc1)c1ccccn1 (stereo not given) .
no

* * *

- System: OVCAR-8 ovarian
- Assay method text: NCI-60 one-dose screen, 48 h (100 = growth as untreated, 0 = no growth, -100 = all killed)
- Assay conditions: 10 µM unless noted
Compounds without any hit were thinned out: in the full panel of roughly 83,000, 20% have a hit.
Experimental readout: growth (%)
Report the value in % with no unit label.

CN1CCN(c2ccc3nc(/N=C/c4ccc5sc(-c6ccc([N+](=O)[O-])cc6)nc5c4)sc3c2)CC1	99.6
Cl.Fc1c[c-]c(-c2ccccn2)c(F)c1.[Pt].c1ccc(P(c2ccccc2)C([PH+](c2ccccc2)c2ccccc2)[PH+](c2ccccc2)c2ccccc2)cc1	16.3
CCCn1nc(-c2ccccc2)c2c(-c3ccccc3)onc2c1=O	102
CCOC(=O)c1nnn(C(Cc2ccccc2Cl)C(=O)OCC)c1C (configuration not stated)	96.7

Name the reported growth value associated with the compound `CC(C)n1nc(C#Cc2cccc3cc(-c4cccc(C(F)(F)F)c4)ncc23)c2c(N)ncnc21`
41.1

Name the reported growth value associated with the compound `COc1cccc(-c2nc3sccn3c2-c2ccnc(NCCNS(=O)(=O)c3c(Cl)cccc3Cl)c2)c1`
39

Name the reported growth value associated with the compound `N#C/C=C(\c1ccc([N+](=O)[O-])cc1)n1nnc2cc(Cl)c(Cl)cc21`
15.7

* * *

- Tested on: TK-10 renal
- Assay method text: NCI-60 one-dose screen, 48 h (100 = growth as untreated, 0 = no growth, -100 = all killed)
- Assay conditions: 10 µM unless noted
About 83,000 compounds went through this panel and 20% of them were active in at least one assay; those are over-represented in the sample as a whole. Calls of active or inactive are those of the source. How the source made its calls: active means growth percent below 10; inactive means the rest.
Experimental readout: growth

CC1(C)N=C(N)N=C(N)N1c1cccc(CN)c1	101% (inactive)
Cc1cc2c(F)c(Oc3ncnc(Nc4ccc(N5C[C@@H](C)N[C@@H](C)C5)cc4)c3C#N)cc(F)c2[nH]1	70.9% (inactive)

Name the reported growth value associated with the molecule `COc1ccc(-c2cn(-c3cccc(C(=O)/C=C/c4cc(OC)c(OC)c(OC)c4)c3)c(=O)[nH]2)cc1`
60.8% (inactive)

Name the reported growth value associated with the molecule `COc1cccc(-c2cnco2)c1OCc1c(C)c(COc2c(OC)cccc2-c2cnco2)c(C)c(COc2c(OC)cccc2-c2cnco2)c1C`
28.1% (inactive)

Name the reported growth value associated with the molecule `O=C(Oc1ccc([N+](=O)[O-])cc1)c1ccc(CBr)cc1`
99.3% (inactive)

Name the reported growth value associated with the molecule CC(=O)Nc1cccc(C2=CC(c3ccc(C)cc3)n3ncnc3N2)c1 (configuration not stated)
110% (inactive)

Name the reported growth value associated with the molecule `Nc1c(-c2nc3ccccc3c(=O)[nH]2)nnn1-c1ccc(Cl)cc1`
72.6% (inactive)

* * *

- System: HCT-15 colon
- Assay method text: NCI-60 one-dose screen, 48 h (100 = growth as untreated, 0 = no growth, -100 = all killed)
- Assay conditions: 10 µM unless noted
- Procedure: Growth inhibition of the HCT-15 human tumor cell line is measured as a screen for anti-cancer activity. Cells are grown in 96 well plates and exposed to the test compound for 48 hours. Compounds are tested at a single concentration, which is 10^-5 M for most compounds. The reported endpoint is percent growth (GI% or GIPRCNT), where numbers from 0 - 100% represent growth inhibition, and numbers from -100% - 0 represent cell death. For example, a value of 40 represents 60% growth inhibition. […]
The panel holds about 83,000 compounds, 20% with a hit somewhere; the sample as a whole holds those more often.
Experimental readout: growth (%)
Report the value in % with no unit label.

Reference set, count: 5
COc1cc(/C=C2\C=C(c3ccccc3)N(CCc3ccccc3)C2=O)cc(OC)c1OC	94.1
C=C(C)[C@@H]1CC[C@]2(CNCCO)CC[C@]3(C)[C@H](CC[C@@H]4[C@@]5(C)CCC(N)[C@@](C)(CO)[C@@H]5CC[C@]43C)[C@@H]12 (stereo not given in full)	32.4
O=C1C(Cl)C(c2ccccc2Cl)N1n1cnnc1 (stereo not given)	101
COC(=O)[C@]12CC[C@@H](C)[C@H](C)[C@@H]1C1=CC[C@@H]3[C@@]4(C)C(C=O)=C[C@@](C)(CO)C4=CC[C@@]3(C)[C@]1(C)CC2	9.41
CCOC(=O)c1cnn2c(-c3ccc(Cl)cc3)nc(NCc3ccccc3)nc12	47.7

Name the reported growth value associated with the compound `Cc1ccc(S(=O)(=O)NN/C(N)=N\S(=O)(=O)c2cc(C)c(Cl)cc2SCc2ccccc2)cc1`
109

Name the reported growth value associated with the compound `CCCCN1CCN(c2ccc3nc(-c4ccc5nc(-c6cc(OC)c(OC)c(OC)c6)[nH]c5c4)[nH]c3c2)CC1`
99.2

Name the reported growth value associated with the compound `Cc1cccc(-c2cc(O)c(C(=O)N3CCOCC3)s2)c1`
21.4

Name the reported growth value associated with the compound `Clc1ccc(/C=C/c2nc(Nc3ccc(Cl)cc3)c3ccccc3n2)cc1`
99

Name the reported growth value associated with the compound `CCNCCNc1cc(-c2ccc(C(=O)OC)cc2)c(C#N)c2nc3ccccc3n12`
45.8

Name the reported growth value associated with the compound `O=S(=O)(Cc1ccccc1)c1nc2ccccc2s1`
33.3

Name the reported growth value associated with the compound `CC(C)n1nc(C#Cc2cccc(O)c2)c2c(N)ncnc21`
-11.2

Name the reported growth value associated with the compound `COc1ccc(-n2ncn(CCCCCCn3cnn(-c4ccc(OC)cc4)c3=O)c2=O)cc1`
95.3

Name the reported growth value associated with the compound `Cc1[nH]c(-c2nc3ccccc3[nH]2)c(C)c1C(=O)NNc1ccc(Cl)cc1`
94.1

Name the reported growth value associated with the compound `CS(=O)(=O)c1ccc(-c2nc3cc(Cl)ccc3n2CC(=O)NO)cc1`
102
